Recorded pIC50 values (UniProtKB Q38C91) are given below.
One number for each entry, as −log10 of the molar value.

Required: pIC50, one value per molecule below.
1. O=C(NCc1nc2nc(Cl)ccc2[nH]1)Nc1ccc(Cl)cc1Cl
2. Clc1cc(Cl)cc(NC[C@@H]2CCCN(c3nc4nc(Cl)ccc4[nH]3)C2)c1
3. N#Cc1c(NCCCNCc2cc(Cl)cc(Cl)c2)[nH]c2cccnc12
4. CC(=O)N(CCN(C)c1nc2ccc(Cl)nc2[nH]1)Cc1cc(Cl)cc(Cl)c1
5. Clc1cc(Cl)cc(Cn2cc(Cc3nc4ccccc4[nH]3)nn2)c1
6. Fc1ccc2nc(NCCCN[C@H]3CCOc4c(Cl)cc(Cl)cc43)[nH]c2n1
7. Clc1cc(Cl)cc(CN[C@H]2CCN(c3nc4ccc(Cl)nc4[nH]3)C2)c1

Reply |
[5.41, 7.49, 7.21, 7.70, 7.14, 6.12, 7.33]

* * *

Recorded IC50 values (UniProtKB Q38C91) are given below.
One number for each entry, in nM.

Field: example entries. Status: answers known.
{"columns": ["COMPOUND", "IC50 [nM]"],
 "data": [
  ["Clc1cc(Cl)cc(CNCCCc2nc3ccc(Cl)cc3[nH]2)c1", 243],
  ["COc1ccc(Oc2cc(NCc3nc4ccc(F)nc4[nH]3)nc(N3CCN(c4cnccn4)CC3)n2)c(Cl)c1", 23]
]}

Required: IC50, one value per compound below.
1. O=C(Cc1cc(Cl)cc(Cl)c1)N1CCC[C@@H](c2nc3cc(Cl)ccc3[nH]2)C1
2. Clc1cc(Cl)c(Cl)c(CN[C@H]2CCCN(c3nc4nc(Cl)ccc4[nH]3)C2)c1

Reply |
3500
18

Required: IC50, one value per compound below.
1. C[C@@H](CNCc1cc(Cl)cc(Cl)c1)CNc1nc2cccnc2[nH]1
2. CC(Cc1nc2c(Cl)cc(Cl)cc2[nH]1)NCc1cc(Cl)cc(Cl)c1 (stereo not shown)
3. O=C(Cc1ccc(Cl)cc1Cl)NCc1nc2cnc(Cl)cc2[nH]1
4. CN(CCN[C@@H]1CCNc2c(Cl)cc(Cl)cc21)c1nc2nc(F)ccc2[nH]1

Reply |
1. 43
2. 2290
3. 214
4. 15

Required: IC50, one value per compound below.
1. CCOc1c(Cl)cc(Cl)cc1CN[C@H]1CCCN(c2nc3nc(Cl)ccc3[nH]2)C1
2. CN(CCNCc1cc(Cl)cc(Cl)c1)c1nc2nc(Cl)c(Br)cc2[nH]1
3. Clc1ccc2[nH]c(N3CCC[C@H](NCc4cc(Br)cc(Br)c4)C3)nc2n1
4. O=C(Cc1cc(Cl)cc(Cl)c1)NCc1nc2ncc(Cl)cc2[nH]1
5. O=C(CSc1nc2ccc(Cl)nc2[nH]1)NCc1cc(Cl)cc(Cl)c1
6. CCN(Cc1cc(Cl)cc(Cl)c1)[C@H]1CCCN(c2nc3ccc(Cl)nc3[nH]2)C1
7. Clc1cc(Cl)cc(NC[C@H]2CCCN(c3nc4nc(Cl)ccc4[nH]3)C2)c1

Reply |
1: 16; 2: 179; 3: 15; 4: 191; 5: 288; 6: 286; 7: 140

* * *

# TARGET_SYSTEM: MetRS (T. brucei) (Trypanosoma brucei brucei)
# Sequence (Q38C91 entry or part of it): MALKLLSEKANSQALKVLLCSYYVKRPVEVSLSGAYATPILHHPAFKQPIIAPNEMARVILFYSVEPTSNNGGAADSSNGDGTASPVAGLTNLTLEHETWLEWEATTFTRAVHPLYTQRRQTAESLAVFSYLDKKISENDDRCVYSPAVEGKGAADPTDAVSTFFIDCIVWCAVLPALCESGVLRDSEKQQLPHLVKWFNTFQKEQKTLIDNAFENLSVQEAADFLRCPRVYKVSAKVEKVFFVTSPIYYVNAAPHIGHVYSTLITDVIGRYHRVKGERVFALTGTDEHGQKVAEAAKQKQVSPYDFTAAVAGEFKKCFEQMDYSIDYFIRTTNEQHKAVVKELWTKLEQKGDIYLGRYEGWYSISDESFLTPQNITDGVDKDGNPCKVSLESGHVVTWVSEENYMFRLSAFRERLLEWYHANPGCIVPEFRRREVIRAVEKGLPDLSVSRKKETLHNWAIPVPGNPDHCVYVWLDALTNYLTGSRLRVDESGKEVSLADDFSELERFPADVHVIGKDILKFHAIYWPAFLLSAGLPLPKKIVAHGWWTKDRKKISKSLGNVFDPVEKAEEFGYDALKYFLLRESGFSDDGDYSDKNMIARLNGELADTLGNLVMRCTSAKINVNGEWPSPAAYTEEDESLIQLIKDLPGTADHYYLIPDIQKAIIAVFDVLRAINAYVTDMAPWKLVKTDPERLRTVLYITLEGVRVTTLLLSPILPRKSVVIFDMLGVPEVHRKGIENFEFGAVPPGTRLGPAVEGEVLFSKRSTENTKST
# ASSAY_SUMMARY: MetRS (T. brucei) ATP depletion assay using Kinase-Glo
# Assay type: biochemical
Note to self: IC50 under 60 nM means Yes, ties and anything higher get No.

{"columns": ["COMPOUND", "CLASS_ASSIGNMENT"],
 "data": [
  ["Nc1nc(Cl)ccc1NC(=O)C1CN(C(=O)Cc2cc(Cl)cc(Cl)c2)CCN1 (centres unmarked)", "No"],
  ["O=C(CCOc1ccc(Cl)cc1Cl)NCc1nc2ccc(F)cc2[nH]1", "No"],
  ["CC(=O)N(Cc1cc(Cl)cc(Cl)c1)C1CCCC(c2nc3cc(Cl)cnc3[nH]2)C1 (centres unmarked)", "No"]
]}

Ask | Quick check: does CC(=O)N(CCCNc1nc2ccc(F)nc2[nH]1)Cc1cc(Cl)cc(Cl)c1 have IC50 under 60 nM?
Reply | Yes

Ask | Quick check: does Clc1cc(Cl)cc(CNCCCc2nc3ccc(Cl)nc3[nH]2)c1 have IC50 under 60 nM?
Reply | Yes

Ask | Quick check: does COc1ccc(Oc2ccnc(NCc3nc4ccccc4[nH]3)c2)c(Cl)c1 have IC50 under 60 nM?
Reply | Yes

Ask | Quick check: does O=C1CN(C(=O)c2ccc3ccccc3c2)CCN1Cc1nc2ccccc2[nH]1 have IC50 under 60 nM?
Reply | No
